Tested on: Acinetobacter baumannii
EXPERIMENT_DESCRIPTION: Antibacterial activity against Acinetobacter baumannii ATCC BAA 1710 after 18 hrs by broth microdilution method
Type: functional
SETTINGS: ATCC BAA 1710, 18 h
MEASURED_PARAMETER: MIC

Ask: Requested read-out MIC, target or system Acinetobacter baumannii, entry CCCCCCCCCC(=O)N[C@@H](Cc1c[nH]c2ccccc12)C(=O)N[C@@H](CC(N)=O)C(=O)N[C@@H](CC(=O)O)C(=O)N[C@@H]1C(=O)NCC(=O)N[C@@H](CCCNC(=O)CCCC(=O)N(CCCCCNC(=O)CCC(=O)N(CCCCNC(=O)c2cccc(OCc3ccccc3)c2OCc2ccccc2)CCCNC(=O)c2cccc(OCc3ccccc3)c2OCc2ccccc2)OCc2ccccc2)C(=O)N[C@@H](CC(=O)O)C(=O)N[C@H](C)C(=O)N[C@@H](CC(=O)O)C(=O)NCC(=O)N[C@H](CO)C(=O)N[C@@H]([C@@H](C)CC(=O)O)C(=O)N[C@@H](CC(=O)c2ccccc2N)C(=O)O[C@@H]1C
Result: > 50 µM
